Target: T1, human CD40-Fc protein (amino acid residue 21-193 of SEQ ID NO: 67 linked to N-terminus of amino acid residue … (human, biotin-labeled in the capture ELISA and in the benchmark blocking ELISA; unlabeled when coated in the ligand blocking ELISA)
T1 construct: also called biotin-labeled human CD40-Fc; human CD40-Fc-biotin
T1 sequence (chain, as listed by the source): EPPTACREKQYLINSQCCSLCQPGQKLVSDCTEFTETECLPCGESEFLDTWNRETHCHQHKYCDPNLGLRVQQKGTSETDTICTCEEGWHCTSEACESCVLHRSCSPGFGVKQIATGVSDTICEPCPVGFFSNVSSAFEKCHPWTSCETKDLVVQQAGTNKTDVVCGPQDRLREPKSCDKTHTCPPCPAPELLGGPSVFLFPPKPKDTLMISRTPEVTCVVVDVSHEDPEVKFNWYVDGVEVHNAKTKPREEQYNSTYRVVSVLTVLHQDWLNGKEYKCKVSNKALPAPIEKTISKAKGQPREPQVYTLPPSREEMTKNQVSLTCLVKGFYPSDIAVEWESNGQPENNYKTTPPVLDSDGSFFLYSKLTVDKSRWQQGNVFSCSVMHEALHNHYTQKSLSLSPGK
Assay: capture ELISA, biotin human CD40-Fc; mAb at 10000 ng/mL
readout-type: absorbance at 450 nm (OD450)
# output: bare number, implied unit OD450

Consider the worked cases shown below.
mouse anti-CD40 monoclonal antibody C1C1 (antibody, V domains shown, those are used here for the chimeric antibody only; also called Mouse C1C1; mouse C1C1) VH: EVKLVESGGGLVKPGASLKLSCAASGFTFSNYGMSWVRQNSDKRLEWVASISSGGDDTYYPDNVKGRCTISRENAKNTLYLEMSSLKTEDTALYYCTRAGGKAMDYWGQGTSVTVST VL: DIVLTQSPATLSVIPGNSVSLSCRASQSIRDNLHWYQQKSHESPRLLINYASQSISGIPSRFSGSGSGTDFTLTINSVETEDFGIYFCQQFNSWPLTFGGGTKLELK ... 1.81
humanized antibody huC1C1-V1 (antibody, human IgG1, kappa, V domains shown, Human IgG1/kappa; also called humanized C1C1-V1) VH: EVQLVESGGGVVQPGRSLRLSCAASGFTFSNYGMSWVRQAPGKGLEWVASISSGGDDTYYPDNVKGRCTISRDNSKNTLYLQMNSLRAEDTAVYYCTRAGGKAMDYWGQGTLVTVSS VL: EIVLTQSPATLSLSPGERATLSCRASQSIRDNLHWYQQKPGQSPRLLINYASQSISGIPARFSGSGSGTDFTLTISSLEPEDFAVYFCQQFNSWPLTFGQGTKVEIKR ... 1.9

Problem: For humanized antibody huC1C1-V2 (antibody, human IgG1, kappa, V domains shown, Human IgG1/kappa) VH: EVQLVESGGGVVQPGRSLRLSCAASGFTFSNYGMSWVRQAPGKGLEWVASISSGGDDTYYPDNVKGRFTISRDNSKNTLYLQMNSLRAEDTAVYYCTRAGGKAMDYWGQGTLVTVSS VL: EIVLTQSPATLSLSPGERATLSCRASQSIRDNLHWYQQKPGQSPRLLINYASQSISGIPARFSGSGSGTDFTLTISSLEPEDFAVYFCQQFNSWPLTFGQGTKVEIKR , what is its reported absorbance at 450 nm?
Solution: 1.82
